B1: HDV Ribozyme (parent)
chain: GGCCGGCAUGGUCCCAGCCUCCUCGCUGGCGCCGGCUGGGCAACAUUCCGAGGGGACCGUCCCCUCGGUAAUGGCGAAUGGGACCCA

Variants of: B1
ASSAY_SUMMARY: self-cleavage, relative activity (ratio to wild type); higher = more cleavage; co-transcriptional
Classify by measured self-cleavage: t if it is equal to or exceeds 0.8, f if it is smaller.

{"VAR": "C19U G73A", "CLASS": "f"}
{"VAR": "A42C A83U", "CLASS": "f"}
{"VAR": "C18G C57A", "CLASS": "f"}
{"VAR": "C64G U72G", "CLASS": "f"}
{"VAR": "A43U G73U", "CLASS": "f"}
{"VAR": "C15U A83C", "CLASS": "f"}
{"VAR": "C15U G54U", "CLASS": "t"}
{"VAR": "G54U C63U", "CLASS": "t"}
